B1: HEEH_KT_rd6_3632 (parent)
chain: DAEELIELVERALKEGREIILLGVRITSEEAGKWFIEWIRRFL

variants of: B1; test: folding stability dG (cDNA display proteolysis); higher = more stable; conditions: PBS, room temperature
experimental.readout: folding stability dG
# output: numeric value plus its unit

F35M : 3.43 kcal/mol
I19S : 2.75 kcal/mol
R41Q : 3.6 kcal/mol
A31L : 4.06 kcal/mol
K33W : 3.7 kcal/mol

Provide reported folding stability dG for each item, in the same order as listed.
1. R17H
2. F42P
3. D1H
4. I6D

Found:
1: 3.54 kcal/mol; 2: 2.5 kcal/mol; 3: 4.04 kcal/mol; 4: 3.2 kcal/mol

Provide reported folding stability dG for each item, in the same order as listed.
1. E4Y
2. A12Q
3. E37P
4. E7Q

Found:
1: 4.24 kcal/mol; 2: 3.17 kcal/mol; 3: 2.92 kcal/mol; 4: 3.79 kcal/mol

Provide reported folding stability dG for each item, in the same order as listed.
1. E10P
2. I26F
3. I6M
4. L22M
5. E7F
6. D1R
7. I6V
8. I19K

Found:
1: 2.64 kcal/mol; 2: 3.44 kcal/mol; 3: 3.3 kcal/mol; 4: 3.53 kcal/mol; 5: 3.74 kcal/mol; 6: 4.12 kcal/mol; 7: 3.48 kcal/mol; 8: 2.94 kcal/mol

Provide reported folding stability dG for each item, in the same order as listed.
1. S28H
2. R11K
3. A2Q

Found:
3.36 kcal/mol
3.65 kcal/mol
3.55 kcal/mol
